# Test system: 922993-354-T-J3-PDC complex spheroids, viability
# protocol.notes: Anticancer human tumor 922993-354-T-J3-PDC patient-derived endometrial carcinoma cell line growth inhibition [GQUAD]
# test.parameters: second compound 0.316 µM; first compound 10 µM; stronger effect = lower value
quantity.measured: viability, T/C (%)
Answer with a number only, understood to be in %.

# compound, target.desc, quantity.measured, reading
rows = [
    ("COc1ccc([C@@H](O)c2cc(-c3ncnc4cc(N5CCOCC5)ccc34)c(F)cc2Cl)nn1 + Cc1[nH]c2ccc(F)cc2c1-c1nc2c3cccnc3c3ncccc3c2[nH]1", "922993-354-T-J3-PDC complex spheroids, viability", "viability, T/C", 43.4),
    ("CC1COCCN1c1cc(C2(S(C)(=N)=O)CC2)nc(-c2ccnc3[nH]ccc23)n1 (stereo not given) + Cc1[nH]c2ccc(F)cc2c1-c1nc2c3cccnc3c3ncccc3c2[nH]1", "922993-354-T-J3-PDC complex spheroids, viability", "viability, T/C", 67),
    ("CC1COCCN1c1cc(C2(O)CC3CCC(C2)O3)c2cnn(-c3ccn[nH]3)c2n1 (stereo not given) + Cc1[nH]c2ccc(F)cc2c1-c1nc2c3cccnc3c3ncccc3c2[nH]1", "922993-354-T-J3-PDC complex spheroids, viability", "viability, T/C", 13.3),
    ("O=C(c1cc(Cc2n[nH]c(=O)c3ccccc23)ccc1F)N1CCN(C(=O)C2CC2)CC1 + CN(C)c1ccc(Nc2c3ccc(NC(=O)CCN4CCCC4)cc3nc3cc(NC(=O)CCN4CCCC4)ccc23)cc1", "922993-354-T-J3-PDC complex spheroids, viability", "viability, T/C", 78.5),
]

Shifting focus to the compound that follows.
Exercise: Answer with the recorded viability, T/C of C=CC(=O)N1CCN(c2nc(=O)n(-c3c(C)ccnc3C(C)C)c3nc(-c4c(O)cccc4F)c(F)cc23)C(C)C1 (stereo not given) + CN(C)c1ccc(Nc2c3ccc(NC(=O)CCN4CCCC4)cc3nc3cc(NC(=O)CCN4CCCC4)ccc23)cc1 only.
Solution: 104

* * *

# Tested on: 922993-354-T-J3-PDC complex spheroids, viability
# protocol.notes: Anticancer human tumor 922993-354-T-J3-PDC cell line growth inhibition [GQUAD]; active means viability on the fitted dose curve at most 10% of control; inactive means the rest;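 also: spheroids exposed to compounds for seven days; 100% = DMSO vehicle control viability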
# test.parameters: second compound 1 µM; first compound 10 µM
Could you please pick one outcome from this set? Yes for active, No for inactive

Exercise: Query: recorded result category for COc1cc(C2c3cc4c(cc3C(OC3OC5COC(C)OC5C(O)C3O)C3COC(=O)C23)OCO4)cc(OC)c1O (stereo unspecified) + Cc1cnc(CNC(=O)c2c(=O)c3ccc(N4CCCN(C)CC4)nc3n3c2sc2ccccc23)cn1 in this test
Solution: No

* * *

# Tested on: 922993-354-T-J3-PDC complex spheroids, viability
# protocol.notes: Anticancer human tumor 922993-354-T-J3-PDC cell line growth inhibition [GQUAD];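 also: spheroids exposed to compounds for seven days; 100% = DMSO vehicle control viability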
# test.parameters: second compound 1 µM; first compound 0.316 µM; stronger effect = lower value
Define the label as yes (1) when viability, T/C is strictly less than 90% and as no (0) in all remaining cases.

# compound, class.name
data = [
    ("COc1cccc2c1C(=O)c1c(O)c3c(c(O)c1C2=O)CC(O)(C(=O)CO)CC3OC1CC(N)C(O)C(C)O1 (stereo not given) + Cc1[nH]c2ccc(F)cc2c1-c1nc2c3cccnc3c3ncccc3c2[nH]1", "yes (1)"),
    ("C=CC(=O)N1CCN(c2nc(=O)n(-c3c(C)ccnc3C(C)C)c3nc(-c4c(O)cccc4F)c(F)cc23)C(C)C1 (stereo not given) + CN(C)c1ccc(Nc2c3ccc(NC(=O)CCN4CCCC4)cc3nc3cc(NC(=O)CCN4CCCC4)ccc23)cc1", "no (0)"),
    ("CCCS(=O)(=O)Nc1ccc(F)c(C(=O)c2c[nH]c3ncc(-c4ccc(Cl)cc4)cc23)c1F + Cc1cnc(CNC(=O)c2c(=O)c3ccc(N4CCCN(C)CC4)nc3n3c2sc2ccccc23)cn1", "yes (1)"),
    ("C=CCn1c(=O)c2cnc(Nc3ccc(N4CCN(C)CC4)cc3)nc2n1-c1cccc(C(C)(C)O)n1 + CN(C)c1ccc(Nc2c3ccc(NC(=O)CCN4CCCC4)cc3nc3cc(NC(=O)CCN4CCCC4)ccc23)cc1", "no (0)"),
    ("COc1cccc2c1C(=O)c1c(O)c3c(c(O)c1C2=O)CC(O)(C(=O)CO)CC3OC1CC(N)C(O)C(C)O1 (stereo not given) + Cc1cnc(CNC(=O)c2c(=O)c3ccc(N4CCCN(C)CC4)nc3n3c2sc2ccccc23)cn1", "yes (1)"),
]

Exercise: Given the entry Cn1ncnc1[C@H]1c2n[nH]c(=O)c3cc(F)cc(c23)N[C@@H]1c1ccc(F)cc1 + Cc1cnc(CNC(=O)c2c(=O)c3ccc(N4CCCN(C)CC4)nc3n3c2sc2ccccc23)cn1 , would its reported viability, T/C be below 90%?
Solution: yes (1)

Exercise: Given the entry COc1cc(C2c3cc4c(cc3C(OC3OC5COC(C)OC5C(O)C3O)C3COC(=O)C23)OCO4)cc(OC)c1O (stereo not given) + Cc1cnc(CNC(=O)c2c(=O)c3ccc(N4CCCN(C)CC4)nc3n3c2sc2ccccc23)cn1 , would its reported viability, T/C be below 90%?
Solution: yes (1)

Provenance of the data: PubChem BioAssay AID2060489
